Taken from patent US9169199B2.

pIC50: −log10 of the molar value.
Reported pIC50 for target or system F1F0-ATPase (Bos taurus, UniProt P13621), by entry.

Worked examples follow.
CCOC(=O)NC1CCC(N/C(=N\C(=O)c2ccccc2)Nc2cc(F)cc(Cl)c2)CC1 (centres unmarked) ... > 5.00
O=C(/N=C(/Nc1cc(F)cc(Cl)c1)NC1CCC(NC(=O)c2cccnc2)CC1)c1ccc(F)c(F)c1 (centres unmarked) ... > 5.00
O=C(/N=C(/NCc1cc(F)cc(F)c1)N[C@H]1CC[C@H](O)CC1)c1ccc(F)c(F)c1 ... < 5.00
O=C(/N=C(/NCc1ccc(F)cc1)N[C@H]1CC[C@H](O)CC1)c1ccc(F)c(F)c1 ... < 5.00
O=C(/N=C(/Nc1cccc(Cl)c1)N[C@H]1CC[C@H](NC(=O)c2cccs2)CC1)c1ccc(F)c(F)c1 ... > 5.00

Provide one value: measured pIC50 of O=C(/N=C(\Nc1cccc(C(F)(F)F)c1)N[C@H]1CC[C@H](O)CC1)c1ccc(C(F)(F)F)cc1
> 5.00

Provide one value: measured pIC50 of COc1cccc(C(=O)/N=C(/Nc2cc(F)cc(Cl)c2)NC2CCC(NC(=O)c3ccccc3)CC2)c1 (centres unmarked)
> 5.00

Provide one value: measured pIC50 of O=C(/N=C(/Nc1cccc(Cl)c1)N[C@H]1CC[C@H](O)CC1)c1ccc(F)c(F)c1
< 5.00
